From: patent US6512097

# ASSAY TARGET: T1, c-erbB-2 ECD with a Ser-Gly-His6 C-terminal fusion (UniProt P04626 23-652)
# T1 construct: extracellular domain; Expressed from CHO cells, IMAC purified; coupled to a CM5 chip, coated on plates, or biotinylated with NHS-LC-biotin; also called c-erbB-2 extracellular domain; biotinylated c-erbB-2 ECD
# ASSAY TEXT: SPR BIAcore
OBSERVED PROPERTY: koff (s⁻¹)

BINDER: C6MH3-B47 (scFv, C6ML3-9 sFv, VH CDR3 library B mutant) scFv: QVQLLQSGAELKKPGESLKISCKGSGYSFTSYWIAWVRQMPGKGLEYMGLIYPGDSDTKYSPSFQGQVTISVDKSVSTAYLQWSSLKPSDSAVYFCARHDVGYCTDRSCAKWPEYFQHWGQGTLVTVSSGGGGSGGGGSGGGGSQSVLTQPPSVSAAPGQKVTISCSGSSSNIGNNYVSWYQQLPGTAPKLLIYGHTNRPAGVPDRFSGSKSGTSASLAISGFRSEDEADYYCASWDYTLSGWVFGGGTKLTVLG
OBS VALUE: 7.5e-05
--
BINDER: C6MH3-B15 (scFv, C6ML3-9 sFv, VH CDR3 library B mutant) scFv: QVQLLQSGAELKKPGESLKISCKGSGYSFTSYWIAWVRQMPGKGLEYMGLIYPGDSDTKYSPSFQGQVTISVDKSVSTAYLQWSSLKPSDSAVYFCARHDVGYCESSRCAKWPEYFQHWGQGTLVTVSSGGGGSGGGGSGGGGSQSVLTQPPSVSAAPGQKVTISCSGSSSNIGNNYVSWYQQLPGTAPKLLIYGHTNRPAGVPDRFSGSKSGTSASLAISGFRSEDEADYYCASWDYTLSGWVFGGGTKLTVLG
OBS VALUE: 0.00029
--
BINDER: C6MH3-C3 (scFv) scFv: QVQLLQSGAELKKPEESLKISCKGSGYSFTSYWIAWVRQMPGKGLEYMGLIYPGDSDTKYSPSFQGQVTISVDKSVSTAYLQWSSLKPSDSAVYFCARHDVGYCSSSNCAKWPEYFQHWGQGTLVTVSSGGGGSGGGGSGGGGSQSVLTQPPSVSAAPGQKVTISCSGSSSNIGNNYVSWYQQLPGTAPKLLIYGHTDRPAGVPDRFSGSKSGTSASLAISGFRSEDEADYYCASWDYTLSGWVFGGGTKLTVLG
OBS VALUE: 0.00032
